tgt: recombinant human DAO (diamine oxidase) (Homo sapiens)
Construct: purchased R&D systems
Sequence (P19801 20-751): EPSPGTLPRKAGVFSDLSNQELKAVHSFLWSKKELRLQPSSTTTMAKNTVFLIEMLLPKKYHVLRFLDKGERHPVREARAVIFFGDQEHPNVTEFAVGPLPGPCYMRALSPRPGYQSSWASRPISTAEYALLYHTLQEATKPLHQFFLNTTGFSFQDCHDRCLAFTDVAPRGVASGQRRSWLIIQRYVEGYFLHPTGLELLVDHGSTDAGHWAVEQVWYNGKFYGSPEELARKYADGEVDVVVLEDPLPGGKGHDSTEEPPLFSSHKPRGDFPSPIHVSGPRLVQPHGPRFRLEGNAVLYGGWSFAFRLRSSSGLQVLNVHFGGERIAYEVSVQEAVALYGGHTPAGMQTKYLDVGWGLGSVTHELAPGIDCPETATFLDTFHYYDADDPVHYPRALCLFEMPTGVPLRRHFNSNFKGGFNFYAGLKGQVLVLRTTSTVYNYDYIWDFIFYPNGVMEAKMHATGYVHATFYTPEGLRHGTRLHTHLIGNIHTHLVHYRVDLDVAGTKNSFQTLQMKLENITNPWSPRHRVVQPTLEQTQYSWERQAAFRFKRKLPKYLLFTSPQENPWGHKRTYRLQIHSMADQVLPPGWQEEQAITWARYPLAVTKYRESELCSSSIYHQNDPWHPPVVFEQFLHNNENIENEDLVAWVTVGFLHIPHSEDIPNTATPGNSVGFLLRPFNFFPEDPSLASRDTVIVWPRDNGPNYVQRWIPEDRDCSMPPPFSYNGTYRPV
protocolDetails: Activity on recombinant human DAO, method similar to the VAP-1 assay
Format: biochemical
settings: substrate 1 mM putrescine; read-out: Inhibitory Activity (IC50, nM) DAO
Where a name gives a salt, the structure may show the parent alone.
Collected IC50 values appear next to each entry.

[
  {
    "compound": "NC/C(=C\\F)Cn1ncn(Cc2ccc(-c3ccc(S(=O)(=O)NC4CC4)cc3)s2)c1=O",
    "IC50 (nM)": 340
  },
  {
    "compound": "NC/C(=C\\F)Cn1ncn(Cc2ccc(-c3ccc4c(c3)CCCN4)s2)c1=O [Example 110, hydrochloride]",
    "IC50 (nM)": 220
  },
  {
    "compound": "NC/C(=C\\F)Cn1ncn(Cc2ccc(/C=C/c3cccc(F)c3)s2)c1=O [Example 118, hydrochloride]",
    "IC50 (nM)": 560
  },
  {
    "compound": "Cc1c(-c2ccc(Cn3cnn(C/C(=C/F)CN)c3=O)s2)ccc2c1NC(=O)CO2 [Example 92, hydrochloride]",
    "IC50 (nM)": 350
  },
  {
    "compound": "NC/C(=C\\F)Cn1ncn(Cc2ccc(-c3ccc4[nH]ncc4c3)s2)c1=O [Example 63, hydrochloride]",
    "IC50 (nM)": 1200
  },
  {
    "compound": "NC/C(=C\\F)Cn1ncn(Cc2ccc(-c3cccc(-c4cc[nH]n4)c3)s2)c1=O",
    "IC50 (nM)": 3800
  },
  {
    "compound": "CCn1cc(-c2ccc(Cn3cnn(C/C(=C/F)CN)c3=O)s2)ccc1=O",
    "IC50 (nM)": 1200
  },
  {
    "compound": "NC/C(=C\\F)Cn1ncn(Cc2ccc(-c3ccc(N4CCNCC4)cc3)s2)c1=O [Example 22, hydrochloride]",
    "IC50 (nM)": 2400
  },
  {
    "compound": "NC/C(=C\\F)Cn1ncn(Cc2ccc(-c3cc4c(c(C(F)(F)F)c3)NC(=O)CC4)s2)c1=O",
    "IC50 (nM)": 68
  },
  {
    "compound": "NC/C(=C\\F)Cn1ncn(Cc2ccc(-c3cc(F)c4c(c3)CC(=O)N4)s2)c1=O [Example 71, hydrochloride]",
    "IC50 (nM)": 530
  },
  {
    "compound": "NC/C(=C\\F)Cn1ncn(Cc2ccc(-c3cnc(N)nc3)s2)c1=O",
    "IC50 (nM)": 1800
  },
  {
    "compound": "NC/C(=C\\F)Cn1ncn(Cc2ccc(Br)s2)c1=O [Example 2, hydrochloride]",
    "IC50 (nM)": 3300
  },
  {
    "compound": "CN1C(=O)COc2cc(-c3ccc(Cn4cnn(C/C(=C/F)CN)c4=O)s3)ccc21 [Example 86, hydrochloride]",
    "IC50 (nM)": 380
  },
  {
    "compound": "Cc1cc(-c2ccc(Cn3cnn(C/C(=C/F)CN)c3=O)s2)cc2c1NC(=O)CC2 [Example 77, hydrochloride]",
    "IC50 (nM)": 460
  },
  {
    "compound": "CCn1cc(-c2ccc(CCn3cnn(C/C(=C/F)CN)c3=O)s2)cn1",
    "IC50 (nM)": 890
  },
  {
    "compound": "CN(C)c1ncc(-c2ccc(Cn3cnn(C/C(=C/F)CN)c3=O)s2)cn1 [Example 55, hydrochloride]",
    "IC50 (nM)": 180
  },
  {
    "compound": "NC/C(=C\\F)Cn1ncn(Cc2ccc(-c3cc(F)c4c(c3)CCC(=O)N4)s2)c1=O",
    "IC50 (nM)": 380
  },
  {
    "compound": "COc1cc(COc2c(C)cc(-c3ccc(Cn4cnn(C/C(=C/F)CN)c4=O)s3)cc2C)cc(OC)c1 [Example 18, hydrochloride]",
    "IC50 (nM)": 350
  }
]
